Test system: VA-ES-BJ
Test: relative viability vs DMSO control (72 h) (fraction); higher = more viable cells
Conditions: 1.111 µM
Overview of recorded relative viability for various compounds
READOUT_TYPE: relative viability

COMPOUND_STRUCTURE_STRING	ASSAY_TARGET	ASSAY_VALUE
CCCS(=O)(=O)Nc1ccc(F)c(C(=O)c2c[nH]c3ncc(-c4ccc(Cl)cc4)cc23)c1F	VA-ES-BJ	1.12
O=C(Cc1ccc(-c2ccc(OCCN3CCOCC3)cc2)cn1)NCc1ccccc1	VA-ES-BJ	0.314
C[C@@H]1CCN(C(=O)CC#N)C[C@@H]1N(C)c1ncnc2[nH]ccc12	VA-ES-BJ	1
Cc1ccc(NC(=O)c2ccc(CN3CCN(C)CC3)cc2)cc1Nc1nc(-c2cccnc2)cs1	VA-ES-BJ	0.897

====

Listing of recorded relative viability by entry.
System: RD
Experiment: relative viability vs DMSO control (72 h) (fraction); higher = more viable cells
Conditions: 0.00051 µM

COMPOUND_STRUCTURE_STRING	relative viability
O=C(Cc1ccc(-c2ccc(OCCN3CCOCC3)cc2)cn1)NCc1ccccc1	1.07
CC(C)(C)c1cc(NC(=O)Nc2ccc(-c3cn4c(n3)sc3cc(OCCN5CCOCC5)ccc34)cc2)no1	1.07
COCc1c(-c2cc3cc(C)cc(OC)c3s2)c2c(N)ncnn2c1CN1CCNC(=O)C1	1.09
CC[C@H](Nc1ncnc2[nH]cnc12)c1nc2cccc(F)c2c(=O)n1-c1ccccc1	1.11

====

Recorded relative viability for the following molecules
Test system: SYO-1
Assay: relative viability vs DMSO control (72 h) (fraction); higher = more viable cells
Settings: 0.3704 µM
READOUT_TYPE: relative viability

COMPOUND_STRUCTURE_STRING	ASSAY_VALUE
Cc1ccc(NC(=O)c2ccc(CN3CCN(C)CC3)cc2)cc1Nc1nc(-c2cccnc2)cs1	0.676
C=CC(=O)N1CCC[C@@H](n2nc(-c3ccc(Oc4ccccc4)cc3)c3c(N)ncnc32)C1	0.861
CCc1cc2c(cc1N1CCC(N3CCOCC3)CC1)C(C)(C)c1[nH]c3cc(C#N)ccc3c1C2=O	0.986
COc1c(OCCCN2CCOCC2)ccc2c1N=C(NC(=O)c1cnc(N)nc1)N1CCN=C21	0.52

====

Test system: SYO-1
Experiment: relative viability vs DMSO control (72 h) (fraction); higher = more viable cells
Settings: 0.3704 µM

COMPOUND_STRUCTURE_STRING	ASSAY_TARGET	relative viability
COCc1c(-c2cc3cc(C)cc(OC)c3s2)c2c(N)ncnn2c1CN1CCNC(=O)C1	SYO-1	0.613
CNC(=O)c1ccc(-c2cnc3ncc(Cc4ccc5ncccc5c4)n3n2)cc1F	SYO-1	0.967
O=C(Nc1cnn2ccc(N3CCC[C@@H]3c3cc(F)ccc3F)nc12)N1CC[C@H](O)C1	SYO-1	0.937
CN1CCC(COc2cnc(-c3cccc(Cn4nc(-c5cccc(C#N)c5)ccc4=O)c3)nc2)CC1	SYO-1	0.931

====

Tested on: HT1080
Test: relative viability vs DMSO control (72 h) (fraction); higher = more viable cells
Settings: 0.1235 µM
READOUT_TYPE: relative viability

COMPOUND_STRUCTURE_STRING	READOUT_TYPE	ASSAY_VALUE
N#CC[C@H](C1CCCC1)n1cc(-c2ncnc3[nH]ccc23)cn1	relative viability	1.05
COc1cc2c(Oc3ccc4[nH]c(C)cc4c3F)ncnc2cc1OCCCN1CCCC1	relative viability	1.08
Cc1cc(Nc2ncnc3ccc(NC4=NC(C)(C)CO4)cc23)ccc1Oc1ccn2ncnc2c1	relative viability	1.08
C[C@@H](c1ccc2nccn2c1)n1nnc2ncc(-c3cnn(C)c3)nc21	relative viability	1.02
C=CC(=O)N1CCC[C@@H](n2nc(-c3ccc(Oc4ccccc4)cc3)c3c(N)ncnc32)C1	relative viability	1.06
C=CC(=O)N1CCC([C@@H]2CCNc3c(C(N)=O)c(-c4ccc(Oc5ccccc5)cc4)nn32)CC1	relative viability	1.03
CN1CCC(COc2cnc(-c3cccc(Cn4nc(-c5cccc(C#N)c5)ccc4=O)c3)nc2)CC1	relative viability	1.07
C[C@]1(O)C[C@@H](c2nc(-c3ccc4ccc(-c5ccccc5)nc4c3)c3c(N)nccn32)C1	relative viability	1.03

====

System: SW982
Experiment: relative viability vs DMSO control (72 h) (fraction); higher = more viable cells
Conditions: 0.00457 µM
Label key: label 1 means relative viability under 1; label 0 means relative viability of 1 or more.

COMPOUND_STRUCTURE_STRING	LABEL
CN1CCC(COc2cnc(-c3cccc(Cn4nc(-c5cccc(C#N)c5)ccc4=O)c3)nc2)CC1	label 0
C[C@@H]1COCCN1c1cc(-c2ccnn2C)c2ccnc(-c3ccn[nH]3)c2n1	label 0
C[C@@H]1CCN(C(=O)CC#N)C[C@@H]1N(C)c1ncnc2[nH]ccc12	label 0
COc1c(OCCCN2CCOCC2)ccc2c1N=C(NC(=O)c1cnc(N)nc1)N1CCN=C21	label 1
Cc1ccc(F)c(NC(=O)Nc2ccc(-c3cccc4[nH]nc(N)c34)cc2)c1	label 0
CO[C@H]1C[C@@H]2CC[C@@H](C)[C@@](O)(O2)C(=O)C(=O)N2CCCC[C@H]2C(=O)O[C@H]([C@H](C)C[C@@H]2CC[C@@H](OP(C)(C)=O)[C@H](OC)C2)CC(=O)[C@H](C)/C=C(\C)[C@@H](O)[C@@H](OC)C(=O)[C@H](C)C[C@H](C)/C=C/C=C/C=C/1C	label 1

====

Quick reference for relative viability among some compounds
System: KHOS-NP
Assay: relative viability vs DMSO control (72 h) (fraction); higher = more viable cells
Details: 0.00457 µM

COMPOUND	relative viability
Cc1nc(-c2cn3c(n2)-c2ccc(-c4cnn(C(C)(C)C(N)=O)c4)cc2OCC3)n(C(C)C)n1 [Taselisib]	1.02
Cc1ccc(NC(=O)c2ccc(CN3CCN(C)CC3)cc2)cc1Nc1nc(-c2cccnc2)cs1 [Masitinib]	1.08
C=CC(=O)N1CCC([C@@H]2CCNc3c(C(N)=O)c(-c4ccc(Oc5ccccc5)cc4)nn32)CC1 [Zanubrutinib]	1.01
CC(C)N1CCN(Cc2cnc(-c3cc(-c4cccc5[nH]ccc45)cc4[nH]ncc34)o2)CC1 [Nemiralisib]	1.01
CNC(=O)c1ccc(-c2cnc3ncc(Cc4ccc5ncccc5c4)n3n2)cc1F [Capmatinib]	1.06

====

Listed here: items and their measured relative viability.
Test system: HT1080
Assay: relative viability vs DMSO control (72 h) (fraction); higher = more viable cells
Settings: 0.04115 µM
READOUT_TYPE: relative viability

COMPOUND_STRUCTURE_STRING	ASSAY_TARGET	ASSAY_VALUE
CNC(=O)c1cc(Oc2ccc(NC(=O)Nc3ccc(Cl)c(C(F)(F)F)c3)c(F)c2)ccn1	HT1080	1.11
COc1cc2/c(=N/c3ccc(Br)cc3F)nc[nH]c2cc1OCC1CCN(C)CC1	HT1080	1.02
C[C@@H](c1ccc2nccn2c1)n1nnc2ncc(-c3cnn(C)c3)nc21	HT1080	1.04
Cc1cnc(Nc2ccc(OCCN3CCCC3)cc2)nc1Nc1cccc(S(=O)(=O)NC(C)(C)C)c1	HT1080	1.05

====

System: RD-ES
Assay: relative viability vs DMSO control (72 h) (fraction); higher = more viable cells
Conditions: 0.01372 µM
The reader will find reported relative viability values listed item by item below.
READOUT_TYPE: relative viability

COMPOUND_STRUCTURE_STRING	ASSAY_TARGET	ASSAY_VALUE
COCc1c(-c2cc3cc(C)cc(OC)c3s2)c2c(N)ncnn2c1CN1CCNC(=O)C1	RD-ES	1.03
COc1cc2nccc(Oc3ccc(NC(=O)Nc4cc(C)on4)c(Cl)c3)c2cc1OC	RD-ES	1.02
COc1cc2c(Oc3ccc4[nH]c(C)cc4c3F)ncnc2cc1OCCCN1CCCC1	RD-ES	0.992
Cn1cc(-c2cc3c(N4CCN(c5ncc([C@@](C)(N)c6ccc(F)cc6)cn5)CC4)ncnn3c2)cn1	RD-ES	0.936
C[C@@H](c1ccc2nccn2c1)n1nnc2ncc(-c3cnn(C)c3)nc21	RD-ES	1
O=C(Cc1ccc(-c2ccc(OCCN3CCOCC3)cc2)cn1)NCc1ccccc1	RD-ES	0.973
C[C@@H]1CCN(C(=O)CC#N)C[C@@H]1N(C)c1ncnc2[nH]ccc12	RD-ES	0.961
Cc1nc(NC(=O)N2CCC[C@H]2C(N)=O)sc1-c1ccnc(C(C)(C)C(F)(F)F)c1	RD-ES	0.894
CCCS(=O)(=O)Nc1ccc(F)c(C(=O)c2c[nH]c3ncc(-c4ccc(Cl)cc4)cc23)c1F	RD-ES	0.982
CC[C@H](Nc1ncnc2[nH]cnc12)c1nc2cccc(F)c2c(=O)n1-c1ccccc1	RD-ES	0.977
Cc1cc(Nc2ncnc3ccc(NC4=NC(C)(C)CO4)cc23)ccc1Oc1ccn2ncnc2c1	RD-ES	0.95

All values here come from the supplement of paper PMC10883282.
